target: AD brain tissue homogenates; test: homologous competitive binding assay of radiotracers, AD tissue; settings: average, NB = no binding
measured.property: pKd
Reminder that pKd means the negative base-10 logarithm of the concentration expressed in mol/L.

Please give the measured pKd for this compound: COc1ccc(Nc2ccc3cc(O[11CH3])ccc3n2)cn1 [[^11C]7f]
7.20

====

molecular target: recombinant α-synuclein fibrils (Homo sapiens, UniProt P37840); assay: radioactive competitive binding assay with [^3H]BF2846 (Tables 1 and 2: or [^18F]7j with LBD-amplified fibrils); conditions: Table 3; [^3H]BF2846 indirect competitive binding assay; read-out: Ki
measured.property: Ki (nM)
Number in nM, nothing else.

COc1cccc(COc2ccc3nc(Nc4ccc(OC)nc4)ccc3c2)c1 : 36
COc1ccc2nc(Nc3ccc(F)nc3)ccc2c1 : 397
COc1ccc(Nc2ccc3cc(OCCOCCOCCF)ccc3n2)cn1 : 49
COc1ccc(Nc2ccc3cc(OCCOCCF)ccc3n2)cn1 : 50

Bench note: what Ki did "Cc1ccc(Nc2ccc3cc(OCCF)ccc3n2)cn1" show?
26.1

// Ki lookup, key: "COc1ccc2nc(Nc3ccc(C(F)(F)F)nc3)ccc2c1"
182

Any idea what its Ki is? The compound is "COc1ccc2nc(Nc3ccc(OC(F)(F)F)nc3)ccc2c1"
10
